# Tested on: 966289-007-R4-J1-PDC complex spheroid viability;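 note: spheroids exposed to the agents for seven days before readout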
# METHOD: Anticancer human tumor 966289-007-R4-J1-PDC patient-derived pancreatic adenocarcinoma cell line growth inhibition [GQUAD]; active = viability on the fitted dose curve at most 10% of control; inactive = the rest
# RUN_CONDITIONS: second compound 0.316 µM; first compound 10 µM
Valid outcomes are listed here; reply with one: yes (active), no (inactive)

CC(C)n1c(=O)n(C)c2cnc3cc(F)c(-c4ccc(OCCCN5CCCCC5)nc4)cc3c21 + Cc1cnc(CNC(=O)c2c(=O)c3ccc(N4CCCN(C)CC4)nc3n3c2sc2ccccc23)cn1	yes

For O=C(c1cc(Cc2n[nH]c(=O)c3ccccc23)ccc1F)N1CCN(C(=O)C2CC2)CC1 + CN(C)c1ccc(Nc2c3ccc(NC(=O)CCN4CCCC4)cc3nc3cc(NC(=O)CCN4CCCC4)ccc23)cc1 , what call appears in the results of this test?
yes

Please let me know the test result on file for O=C(c1cc(Cc2n[nH]c(=O)c3ccccc23)ccc1F)N1CCN(C(=O)C2CC2)CC1 + Cc1cnc(CNC(=O)c2c(=O)c3ccc(N4CCCN(C)CC4)nc3n3c2sc2ccccc23)cn1 .
yes

Given O=c1[nH]cc(F)c(=O)[nH]1 + Cc1[nH]c2ccc(F)cc2c1-c1nc2c3cccnc3c3ncccc3c2[nH]1 , state the outcome it received in this test.
yes
